- test protocol: Cmax in cancer patient at 80 mg for 60 mins treated 1/1 cycle/day
- Assay type: ADME, organism-based
- Design: dose 80 mg, dosed compound name LY2090314
- setup conditions: human, in vivo
readout name: Cmax

Exercise: Quick check: Cmax of O=C1NC(=O)C(c2cnc3ccccn23)=C1c1cn2c3c(cc(F)cc13)CN(C(=O)N1CCCCC1)CC2 [LY-2090314] ?
Solution: 898 ng/mL

* * *

- test protocol: Cmax in cancer patient at 80 mg for 60 mins treated 1/8 cycle/day
- Assay type: ADME, organism-based
- Set-up: dose 80 mg, dosed compound name LY2090314
- setup conditions: human, in vivo
readout name: Cmax (ng/mL)
Supply the numeric figure in ng/mL, leaving out any unit text.

Exercise: Quick check: Cmax of O=C1NC(=O)C(c2cnc3ccccn23)=C1c1cn2c3c(cc(F)cc13)CN(C(=O)N1CCCCC1)CC2 ?
Solution: 1150
